Experiment: In vitro antioxidant activity (DPPH test)
Assay type: biochemical
Settings: 10^-4 M, 100 µM
Where a SMILES comes first, the peptide text is derived from it. [ ]: non-standard residue; d: D form. pGlu = O=C1CC[C@@H](C(=O)O)N1
Consider the following compounds and their measured Variat. (%) of absorbancies readings.
// note: answer is a bare numeric in %

Example cases with answers are listed next.
* O=C1O[C@H]([C@@H](O)CO)C(O)=C1O | -86.0
* COC(=O)[C@H](CS)NC(=O)[C@@H]1CCC(=O)N1 [Ic] ([pGlu]-Cys-OMe) | -82.7
* N[C@@H](CS)C(=O)O | -83.7
* O=C(O)[C@H](CS)NC(=O)[C@@H]1CCC(=S)N1 | -83.1
* CC(=O)N[C@@H](CS)C(=O)O | -86.3
* COC(=O)[C@H](CS)NC(=O)[C@@H]1CCC(=S)N1 | -79.1

Here's the next entry for you.
Enquiry: Let me know recorded Variat. (%) of absorbancies for O=C1CC[C@@H](C(=O)N[C@@H](CS)C(=O)O)N1 [N-(5-oxo-L-prolyl)-L-cysteine] ([pGlu]-Cys-OH) , thanks.
Return: -88.1

* * *

Tested on: elimination of phenol red from the respiratory fluid
Assay: Mucosecretolytic activity (phenol red test in the mouse)
Assay type: in vivo
Conditions: 100 mg/kg os, controls 2.73 ± 0.18, **p <0.01 Dunnett's "t" test
Where a SMILES comes first, the peptide text is derived from it. [ ]: non-standard residue; d: D form. pGlu = O=C1CC[C@@H](C(=O)O)N1
Exam item: assign met to entries whose Mean secretion (total μg) (mean ± S.E.) is below 5 µg and not met to entries at or above 5 µg. Note that a value of exactly 5 µg receives not met.

Example results:
* CC(=O)N[C@@H](CS)C(=O)O [N-acetyl-L-cysteine] | met
* O=C(O)[C@H](CS)NC(=O)[C@@H]1CCC(=S)N1 [Ie, N-(5-thioxo-L-prolyl)-L-cysteine] | not met
* COC(=O)[C@H](CS)NC(=O)[C@@H]1CCC(=O)N1 [Ic] ([pGlu]-Cys-OMe) | not met
* COC(=O)[C@H](CS)NC(=O)[C@@H]1CCC(=S)N1 [Id] | not met

For the next question, use this compound.
Enquiry: Please determine if O=C1CC[C@@H](C(=O)N[C@@H](CS)C(=O)O)N1 [N-(5-oxo-L-prolyl)-L-cysteine] ([pGlu]-Cys-OH) is below 5 µg in terms of Mean secretion (total μg) (mean ± S.E.).
Return: not met

* * *

System: elimination of phenol red from the respiratory fluid
Assay: Mucosecretolytic activity (phenol red test in the mouse)
Assay type: in vivo
Conditions: 100 mg/kg os
Consider the following molecules and their measured Variat. (%) of mean secretion vs controls readings.

Enquiry: Let me know recorded Variat. (%) of mean secretion vs controls for COC(=O)[C@H](CS)NC(=O)[C@@H]1CCC(=S)N1 , thanks.
Return: +97.4%

* * *

Assay: In vitro antioxidant activity (DPPH test)
Assay type: biochemical
Conditions: 5.10^-5 M, 50 µM
Where a SMILES comes first, the peptide text is derived from it. [ ]: non-standard residue; d: D form. pGlu = O=C1CC[C@@H](C(=O)O)N1
Consider the following compounds and their measured Variat. (%) of absorbancies readings.
// note: answer is a bare numeric in %

Example cases with answers are listed next.
* COC(=O)[C@H](CS)NC(=O)[C@@H]1CCC(=O)N1 [Ic] ([pGlu]-Cys-OMe) | -49.1
* O=C1CC[C@@H](C(=O)N[C@@H](CS)C(=O)O)N1 [N-(5-oxo-L-prolyl)-L-cysteine] ([pGlu]-Cys-OH) | -49.6

Enquiry: Let me know recorded Variat. (%) of absorbancies for O=C1O[C@H]([C@@H](O)CO)C(O)=C1O [L-ascorbic acid] , thanks.
Return: -49.5
